All figures here come from ChEMBL document CHEMBL3885861.

Readings of MCHC for the listed compounds
Organism: Rattus norvegicus
runDescription: Open TG-GATES - Regimen: Daily Repeat
Assay type: toxicity, organism-based, Sprague-Dawley
Parameters: regimen Daily Repeat, gender Male, age 6 weeks
reportedConditions: in vivo, po, 1000 mg/kg, […], tissue Blood, route gavage, dose level High, time 14 day
I only need the number, in %, no unit after it.

| compound | MCHC [%] |
| --- | --- |
| CCCCNC(=O)NS(=O)(=O)c1ccc(C)cc1 [TOLBUTAMIDE] | 32.7 |
| CC(S)C(=O)NCC(=O)O (centres undefined) | 33.7 |
| O=C(O)c1ccccc1Nc1ccccc1 | 33.5 |

// next entry
The compound listed as CC(=O)[C@@]1(O)CC[C@H]2[C@@H]3C=C(Cl)C4=CC(=O)CC[C@]4(C)[C@H]3CC[C@@]21C has a reported MCHC of 33.9

---

Organism: Rattus norvegicus
runDescription: Open TG-GATES - Regimen: Daily Repeat
Assay type: toxicity, organism-based, Sprague-Dawley
Set-up: regimen Daily Repeat, gender Male, age 6 weeks
reportedConditions: in vivo, po, 0 mg/kg, 72 h, tissue Blood, route gavage, dose level Control, time 3 day
Readings of Eos for the listed compounds

| structureAsSmiles | Eos |
| --- | --- |
| CN(C/C=C/C#CC(C)(C)C)Cc1cccc2ccccc12 | 1% |
| CCO | 1% |

The compound listed as CCCCC1C(=O)N(c2ccccc2)N(c2ccccc2)C1=O has a reported Eos of 1%

---

Organism: Rattus norvegicus
runDescription: Open TG-GATES - Regimen: Daily Repeat
Format: toxicity, organism-based, Sprague-Dawley
Set-up: regimen Daily Repeat, gender Male, age 6 weeks
reportedConditions: in vivo, po, 100 mg/kg, […], route gavage, dose level Low, time 28 day
metricName: TERMINAL_BW (g)
I only need the number, in g, no unit after it.

// solved cases for TERMINAL_BW follow
| molecule | metricName | unitAbbrev | valueMeasured |
| --- | --- | --- | --- |
| CC(=O)[C@@]1(O)CC[C@H]2[C@@H]3C=C(Cl)C4=CC(=O)CC[C@]4(C)[C@H]3CC[C@@]21C [CHLORMADINONE] | TERMINAL_BW | g | 362.8 |
| CC(S)C(=O)NCC(=O)O (centres undefined) [TIOPRONIN] | TERMINAL_BW | g | 376.7 |
| CCCCNC(=O)NS(=O)(=O)c1ccc(C)cc1 [TOLBUTAMIDE] | TERMINAL_BW | g | 400.3 |

The molecule listed as O=C(O)c1ccccc1Nc1ccccc1 [FENAMIC ACID] has a reported TERMINAL_BW of 419.6

---

Readings of GLC for the listed compounds
Species: Rattus norvegicus
runDescription: Open TG-GATES - Regimen: Daily Repeat
Format: toxicity, organism-based, Sprague-Dawley
Design: regimen Daily Repeat, gender Male, age 6 weeks
reportedConditions: in vivo, po, 100 mg/kg, […], tissue Plasma, route gavage, dose level Low, time 14 day
I only need the number, in mg/dL, no unit after it.

| compound | valueMeasured |
| --- | --- |
| O=C(O)c1ccccc1Nc1ccccc1 | 179.4 |

The compound listed as CC(S)C(=O)NCC(=O)O (centres undefined) has a reported GLC of 199

The compound listed as CCCCNC(=O)NS(=O)(=O)c1ccc(C)cc1 [TOLBUTAMIDE] has a reported GLC of 196.2

The compound listed as CC(=O)[C@@]1(O)CC[C@H]2[C@@H]3C=C(Cl)C4=CC(=O)CC[C@]4(C)[C@H]3CC[C@@]21C has a reported GLC of 183.8
